Tested on: salicylic acid binding protein
Assay: Competitive [14C] salicylic acid binding assay (spin-column)
Design: species or system tobacco
Conditions: [14C] salicylic acid 20 μM, 200 μM (10×) unlabeled competitor
Experimental: The 180 kDa native binding protein isolated was tested for binding affinity and specificity. A competitive assay was established using salicylic acid binding protein fractionated from plants as previously described. A key element during the characterization and the purification process is a simple, inexpensive, sensitive and reliable method for determining the salicylic acid binding activity. […]
Each record here notes measured Inhibition (%) 10×.
measured endpoint: Inhibition (%) 10×

compound	target under test	measured endpoint	observed
O=C(O)c1ccccc1Cl	salicylic acid binding protein	Inhibition (%) 10×	2
O=C(O)c1c(O)cc(O)cc1O [2,4,6-Trihydroxybenzoic acid]	salicylic acid binding protein	Inhibition (%) 10×	3
O=C(O)c1ccccc1	salicylic acid binding protein	Inhibition (%) 10×	25
O=C(O)c1cc(O)ccc1O [2,5-Dihydroxybenzoic acid]	salicylic acid binding protein	Inhibition (%) 10×	-1
Nc1ccc(O)c(C(=O)O)c1	salicylic acid binding protein	Inhibition (%) 10×	-2
O=C(O)c1ccc(O)cc1O [2,4-Dihydroxybenzoic acid]	salicylic acid binding protein	Inhibition (%) 10×	-2
O=C(O)c1cccc(O)c1O [2,3-Dihydroxybenzoic acid]	salicylic acid binding protein	Inhibition (%) 10×	10
O=C(O)c1cc(O)c(O)cc1O [3,4,6-Trihydroxybenzoic acid]	salicylic acid binding protein	Inhibition (%) 10×	-1
O=C(O)c1ccccc1S	salicylic acid binding protein	Inhibition (%) 10×	1
O=C(O)c1c(O)cccc1O [2,6-Dihydroxybenzoic acid]	salicylic acid binding protein	Inhibition (%) 10×	91
O=C(O)c1ccccc1O [salicylic acid, 2-hydroxybenzoic acid]	salicylic acid binding protein	Inhibition (%) 10×	91

====

System: salicylic acid binding protein
Test: Competitive [14C] salicylic acid binding assay (spin-column)
Parameters: species or system tobacco
Conditions: [14C] salicylic acid 20 μM, 200 μM (10×) unlabeled competitor
Description: The 180 kDa native binding protein isolated was tested for binding affinity and specificity. A competitive assay was established using salicylic acid binding protein fractionated from plants as previously described. A key element during the characterization and the purification process is a simple, inexpensive, sensitive and reliable method for determining the salicylic acid binding activity. […]
Each record here notes measured Inhibition (%) 10×.

molecule	Inhibition (%) 10×
CCOc1ccccc1C(=O)O	2
O=C(O)c1cccc(O)c1 [3-Hydroxybenzoic acid]	0
CC(=O)Oc1ccccc1C(=O)O	57
O=C(O)c1ccc(O)c(O)c1O [2,3,4-Trihydroxybenzoic acid]	2
Nc1ccc(C(=O)O)c(O)c1	-1
Oc1ccccc1O	1
Nc1cccc(C(=O)O)c1O	5
O=C(O)c1ccc(O)cc1 [4-Hydroxybenzoic acid]	-2

====

System: salicylic acid binding protein
Assay: Competitive [14C] salicylic acid binding assay (spin-column)
Design: species or system tobacco
Conditions: [14C] salicylic acid 20 μM, 40 μM (2×) unlabeled competitor

compound	Inhibition (%) 2×
O=C(O)c1cccc(O)c1 [3-Hydroxybenzoic acid]	-2
Nc1ccc(C(=O)O)c(O)c1 [4-Aminosalicylic acid]	0
O=C(O)c1ccc(O)cc1 [4-Hydroxybenzoic acid]	1
O=C(O)c1cccc(O)c1O [2,3-Dihydroxybenzoic acid]	1
CCOc1ccccc1C(=O)O [2-Ethoxybenzoic acid]	-3
O=C(O)c1ccccc1 [Benzoic acid]	14
CC(=O)Oc1ccccc1C(=O)O [Acetylsalicylic acid]	25
O=C(O)c1ccccc1O [salicylic acid, 2-hydroxybenzoic acid]	50

====

Target: salicylic acid binding protein
Test: Scatchard analysis of [14C] salicylic acid binding
Settings: tobacco SABP; [14C] salicylic acid 2 to 70 μM
pKd: −log10 of the molar value.
measured endpoint: pKd

molecule	target under test	observed
O=C(O)c1ccccc1O [salicylic acid, 2-hydroxybenzoic acid]	salicylic acid binding protein	4.85

====

Molecular target: cucumber salicylic acid binding protein
Experiment: Salicylic acid binding activity from cucumber
Conditions: cucumber derived salicylic acid binding protein

compound	Kd
O=C(O)c1ccccc1O [salicylic acid, 2-hydroxybenzoic acid]	~30 µM

====

Molecular target: UniProtKB P49319
Sequence (P49319 1-492): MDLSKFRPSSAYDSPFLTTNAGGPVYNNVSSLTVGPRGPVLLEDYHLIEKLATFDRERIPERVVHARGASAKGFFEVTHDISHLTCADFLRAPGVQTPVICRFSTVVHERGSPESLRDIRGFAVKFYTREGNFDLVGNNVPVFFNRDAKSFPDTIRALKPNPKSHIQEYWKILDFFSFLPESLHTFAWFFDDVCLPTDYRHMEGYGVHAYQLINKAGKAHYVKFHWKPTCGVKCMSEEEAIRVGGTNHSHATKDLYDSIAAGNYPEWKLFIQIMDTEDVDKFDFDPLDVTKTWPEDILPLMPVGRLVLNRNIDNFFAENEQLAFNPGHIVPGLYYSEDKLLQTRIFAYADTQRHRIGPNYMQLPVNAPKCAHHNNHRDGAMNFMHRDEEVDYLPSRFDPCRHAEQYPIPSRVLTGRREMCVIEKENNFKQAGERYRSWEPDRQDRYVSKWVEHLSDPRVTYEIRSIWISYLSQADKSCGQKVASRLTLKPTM
Experiment: Catalase activity of highly purified SABP (luminol method)
Format: biochemical, tobacco
Details: 0.05 h; 1 mM SA or analogue, 1 mM H2O2, 500 ng highly purified SABP
measured endpoint: inhibition at 1000 µM (%)

molecule	observed
O=C(O)c1ccc(O)c(O)c1 [3,4-Dihydroxybenzoic acid]	5.1
O=C(O)c1ccc(O)cc1O [2,4-Dihydroxybenzoic acid]	5.2
O=C(O)c1ccccc1O [salicylic acid, 2-hydroxybenzoic acid]	80
O=C(O)c1cc(O)ccc1O [2,5-Dihydroxybenzoic acid]	3.2
O=C(O)c1ccc(O)cc1 [4-Hydroxybenzoic acid]	4.1
O=C(O)c1c(O)cccc1O [2,6-Dihydroxybenzoic acid]	91.3
CC(=O)Oc1ccccc1C(=O)O	53.6
O=C(O)c1cccc(O)c1O [2,3-Dihydroxybenzoic acid]	15.3
O=C(O)c1cccc(O)c1 [3-Hydroxybenzoic acid]	3.1

====

Tested on: salicylic acid binding protein
Assay: Competitive [14C] salicylic acid binding assay (spin-column)
Parameters: species or system tobacco
Details: [14C] salicylic acid 20 μM, 40 μM (2×) unlabeled competitor
Protocol: The 180 kDa native binding protein isolated was tested for binding affinity and specificity. A competitive assay was established using salicylic acid binding protein fractionated from plants as previously described. A key element during the characterization and the purification process is a simple, inexpensive, sensitive and reliable method for determining the salicylic acid binding activity. […]
Each record here notes measured Inhibition (%) 2×.
measured endpoint: Inhibition (%) 2×

molecule	observed
Oc1ccccc1O	0
O=C(O)c1c(O)cc(O)cc1O [2,4,6-Trihydroxybenzoic acid]	-1
Nc1cccc(C(=O)O)c1O	1
O=C(O)c1c(O)cccc1O [2,6-Dihydroxybenzoic acid]	51
O=C(O)c1ccc(O)cc1O [2,4-Dihydroxybenzoic acid]	-1
Nc1ccc(O)c(C(=O)O)c1	1
O=C(O)c1cc(O)ccc1O [2,5-Dihydroxybenzoic acid]	1
O=C(O)c1ccccc1S	-5
O=C(O)c1ccc(O)c(O)c1O [2,3,4-Trihydroxybenzoic acid]	1
O=C(O)c1ccccc1Cl	0
O=C(O)c1cc(O)c(O)cc1O [3,4,6-Trihydroxybenzoic acid]	1

====

Target: ascorbate peroxidase
Assay: Ascorbate peroxidase activity in tobacco leaf extracts
Details: 750 μM ascorbate, 25 to 500 μM compound, FIG. 17; read-out: Concentration necessary for 50% inhibition (I50) of ascorbate peroxidase
pIC50: −log10 of the molar value.
measured endpoint: pIC50

compound	target under test	observed
O=C(O)c1cc(Cl)nc(Cl)c1 [INA, 2,6-dichloroisonicotinic acid]	ascorbate peroxidase	4.02

====

Tested on: ascorbate peroxidase
Test: Ascorbate peroxidase activity in tobacco leaf extracts
Format: biochemical, Nicotiana tabacum cv. Xanthi nc
Settings: 200 μM compound, corrected for quenching of auto oxidation
Procedure: […] Two grams of leaves from 6-8 week old tobacco plants (Nicotiana tabacum cv. Xanthi nc) grown at 22° C. in a 14 hr light cycle were homogenized under liquid nitrogen using a pestle and mortar. To obtain ascorbate peroxidase-containing extracts, the soluble proteins were extracted by grinding the powder in 10 ml of 100 mM potassium phosphate, pH 7, containing […] ascorbate and 1% (weight/volume) polyvinylpyrrolidone, with a small amount of quartz sand. […]
Each record here notes measured % Inhibition of ascorbate peroxidase.

compound	% Inhibition of ascorbate peroxidase [%]
O=C(O)c1cc(Cl)ccc1O	73
O=C(O)c1cc(Cl)cc(Cl)c1O	59
O=C(O)c1cccc(O)c1 [3-Hydroxybenzoic acid]	28
O=C(O)c1ccc(Cl)cc1O	58
O=C(O)c1ccccc1O [salicylic acid, 2-hydroxybenzoic acid]	83
O=C(O)c1c(O)cccc1O [2,6-Dihydroxybenzoic acid]	72
Nc1ccc(C(=O)O)c(O)c1	9
O=C(O)c1ccc(O)cc1 [4-Hydroxybenzoic acid]	0
O=C(O)c1ccccc1S	0

====

Tested on: SABP/catalase
Experiment: Competition with 14C-labeled SA for SABP/catalase in crude leaf extracts
Assay type: binding, tobacco
Conditions: Table 8; 14C-labeled SA 20 μM, 1 mM unlabeled compound, crude leaf extracts
Assign MET whenever Inhibition (%) [14C]SA binding does not fall below 20%; assign NOT MET whenever it does.

smiles input	target under test	classification
CCCc1cc(C(=O)O)cc(O)n1	SABP/catalase	NOT MET
O=C(O)c1ccccc1O	SABP/catalase	MET
O=C(O)c1cc(Br)nc(Br)c1	SABP/catalase	MET
O=C(O)c1cc(O)nc(O)c1	SABP/catalase	NOT MET
O=C(O)c1cc(Cl)nc(Cl)c1	SABP/catalase	MET
O=C(O)c1ccc(O)cc1	SABP/catalase	NOT MET
CC(C)c1cc(C(=O)O)cc(O)n1	SABP/catalase	NOT MET
O=C(O)c1cc(Cl)cc(Cl)c1O	SABP/catalase	MET
O=C(O)c1cc(Cl)ccc1O	SABP/catalase	MET
O=C(O)c1ccc(Cl)cc1O	SABP/catalase	MET
O=Cc1cc(Cl)nc(Cl)c1	SABP/catalase	MET
O=C(O)c1cccc(O)c1	SABP/catalase	NOT MET
O=C(O)c1cc(F)nc(F)c1	SABP/catalase	MET

Data credit: patent US5989846A
